B1: HDV Ribozyme (parent)
chain: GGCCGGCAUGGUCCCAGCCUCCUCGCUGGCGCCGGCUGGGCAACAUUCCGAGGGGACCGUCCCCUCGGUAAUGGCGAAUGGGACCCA

- Variants of: B1
- protocol.text: self-cleavage, relative activity (ratio to wild type); higher = more cleavage; co-transcriptional
# thresholds on self-cleavage define classes: low class = under 0.2, middle class = from 0.2 up to 0.5, high class = 0.5 and over

See these solved cases before continuing.
GGCCGGCAUGGUCCCAGCCUCCUCGGUGGCGCCGGCUGGGCAACAUUCCGAGGGGACCGUCCCCUCGGUAAUGGCGAAUCGGACCCA [C26G G80C] = middle class
GGCCGGCAUGGUCCCAGCCUCCUCGCUGGCGCCGUCUGGGAAACAUUCCGAGGGGACCGUCCCCUCGGUAAUGGCGAAUGGGACCCA [G35U C41A] = middle class
GGCCGGCAUGGUCCCAGCCUCCUCGCUGGCGCCGGGUGGGCAACAUUCCGAGGGGACCGUCCCCUCCGUAAUGGCGAAUGGGACCCA [C36G G67C] = low class
GGCCGGCAUGAUCCCAGCCUCCUCGCUGGCGCCGGCUGGGCAACAUUCCGAGGGGACCGUCCCCUCGGUAAUGGCCAAUGGGACCCA [G11A G76C] = high class
GGCCGGCAUGGUCCCAGCCUCCUCGCGGGCGCCGGCUGGGCAACAUUCCGAGGGGACCGUCCCCUCGGCAAUGGCGAAUGGGACCCA [U27G U69C] = high class

[Q] Please let me know in which category the item GGCCGGCAUGGUCCCAGCCUCCUCGCCGGCGCCGGCUGGGCAACAUUCCGAGGGGACCGACCCCUCGGUAAUGGCGAAUGGGACCCA [U27C U60A] belongs.
[A] high class

[Q] Same for GGCCGGCAUGGUCCCAGCCUGCUCGCUGGCGCCGGCUGGUCAACAUUCCGAGGGGACCGUCCCCUCGGUAAUGGCGAAUGGGACCCA [C21G G40U]
[A] low class

[Q] Do the same for GGCCGGCAUGGUCCCAGCCUCCUCGCUGGCGCCGGCUGGGCAACAUUCCGAGGGGACCAUCCCCUCGAUAAUGGCGAAUGGGACCCA [G59A G68A] please
[A] high class

[Q] Same again, this time with GGCCAGCAUGGUCCUAGCCUCCUCGCUGGCGCCGGCUGGGCAACAUUCCGAGGGGACCGUCCCCUCGGUAAUGGCGAAUGGGACCCA [G5A C15U]
[A] low class
